Known melting point of a selection of compounds

Ask: Query: melting point; subject: Nc1nc(-c2cc3ccccc3o2)c2nc[nH]c2n1
Reply: 310 to 310.3 °C

Ask: Query: melting point; subject: Nc1nc(-c2ccco2)c2ncn(CC(=O)Nc3ccccc3)c2n1
Reply: 289.1 to 289.7 °C

----------
Known Ki of a selection of compounds
TEST_TARGET: human adenosine A2A receptors (Homo sapiens)
Sequence (P29274 whole entry): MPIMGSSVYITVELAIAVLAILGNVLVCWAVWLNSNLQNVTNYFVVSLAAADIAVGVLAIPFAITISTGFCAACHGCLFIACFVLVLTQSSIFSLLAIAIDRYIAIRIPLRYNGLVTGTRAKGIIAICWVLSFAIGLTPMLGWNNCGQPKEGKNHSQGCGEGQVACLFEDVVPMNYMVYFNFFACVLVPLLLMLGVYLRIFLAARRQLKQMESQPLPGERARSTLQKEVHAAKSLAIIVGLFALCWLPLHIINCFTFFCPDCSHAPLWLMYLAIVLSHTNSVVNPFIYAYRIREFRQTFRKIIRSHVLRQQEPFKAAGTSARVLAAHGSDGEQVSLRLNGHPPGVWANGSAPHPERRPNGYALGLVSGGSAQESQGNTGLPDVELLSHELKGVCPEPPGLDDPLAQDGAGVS
MEASUREMENT_PROTOCOL: Binding affinities at hA2A receptors, displacement of [3H]-CGS 21680
PROTOCOL_CONDITIONS: human adenosine A2A receptor, radioligand [3H]-CGS 21680
The answer is to be given in nM; state only the numeric part.

Example entries begin here.
SMILES | PROPERTY_MEASURED | RECORDED_RESULT
Nc1nc(-c2ccco2)c2ncn(C(=O)NCc3ccccc3Cl)c2n1 | Ki | 1
C[C@H](NC(=O)n1cnc2c(-c3ccco3)nc(N)nc21)c1ccccc1 | Ki | 2
Cc1ccc(CNC(=O)n2cnc3c(-c4ccco4)nc(N)nc32)cc1 | Ki | 1
Nc1nc(-c2ccco2)c2ncn(C(=O)NCc3cccs3)c2n1 | Ki | 1
Nc1nc(-c2ccco2)c2ncn(C(=O)NCc3ccco3)c2n1 | Ki | 2
Cc1cccc(CNC(=O)n2cnc3c(-c4ccco4)nc(N)nc32)c1 | Ki | 1

Ask: Query: Ki; subject: Nc1nc(-c2ccco2)c2ncn(C(=O)NCc3ccc(F)cc3)c2n1
Reply: 1

Ask: Query: Ki; subject: Nc1nc(-c2ccco2)c2ncn(C(=O)NCCc3ccccc3)c2n1
Reply: 6

Ask: Query: Ki; subject: COc1nc(-c2ccco2)c2ncn(C(=O)NCc3ccccc3)c2n1
Reply: 8

Ask: Query: Ki; subject: Nc1nc(-c2ccco2)c2ncn(C(=O)NCc3ccccc3)c2n1
Reply: 1

----------
PROPERTY_MEASURED: melting point

SMILES | melting point
OC[C@H]1CCCN1c1nc(-c2ccco2)c2nc[nH]c2n1 | 130.9 to 131.5 °C
Cc1noc(C)c1Cn1cnc2c(-c3ccco3)nc(N)nc21 | 282.4 to 282.6 °C
C=CCNc1nc(-c2ccco2)c2nc[nH]c2n1 | 158.7 to 160.1 °C
Nc1nc(-c2ccco2)c2ncn(Cc3ccccc3[N+](=O)[O-])c2n1 | 290.6 to 290.7 °C
CNC(=O)Cn1cnc2c(-c3ccco3)nc(N)nc21 | 290.2 to 291.6 °C
Nc1nc(-c2ccco2)c2ncn(CC(=O)N3CCCC3)c2n1 | 283.6 to 283.7 °C
CC(C)(C)OC(=O)n1cnc2c(-c3cccs3)nc(N)nc21 | > 250 °C (dec.)
Cc1ccc(S(=O)(=O)n2cnc3c(-c4ccco4)nc(N(C)C)nc32)cc1 | 212.6 to 213 °C
Nc1nc(-c2ccco2)c2ncn(Cc3ccc(C(=O)O)cc3)c2n1 | 301.1 to 302.1 °C
Nc1nc(-c2ccco2)c2ncn(CC(=O)Nc3cccc(Cl)c3)c2n1 | 278 °C (dec.)

Ask: Query: melting point; subject: CC(C)(C)OC(=O)n1cnc2c(-c3ccco3)nc(Cl)nc21
Reply: > 305 °C (dec.)

Ask: Query: melting point; subject: Cc1nc(-c2nc(N)nc3[nH]cnc23)no1
Reply: > 200 °C (dec.)

----------
PROPERTY_MEASURED: melting point

Example entries begin here.
SMILES | RECORDED_RESULT
Nc1nc(-c2ccco2)c2ncn(C(=O)C3CCCCC3)c2n1 | > 300 °C (dec.)
COc1cccc(NC(=O)Cn2cnc3c(-c4ccco4)nc(N)nc32)c1 | 278.5 to 280.4 °C
N#Cc1cccc(Cn2cnc3c(-c4ccco4)nc(N)nc32)c1 | 302.5 to 304.8 °C

Ask: Query: melting point; subject: CN(C)c1nc(-c2ccco2)c2ncn(COCC[Si](C)(C)C)c2n1
Reply: 81.5 to 82.2 °C

Ask: Query: melting point; subject: Cc1ccc(-c2nc(N)nc3[nH]cnc23)o1
Reply: > 190 °C (dec.)

Ask: Query: melting point; subject: Nc1nc(-c2ccco2)c2ncn(CC(=O)NCCc3ccccc3)c2n1
Reply: 247.3 to 247.4 °C

Ask: Query: melting point; subject: Cc1ccc(Cn2cnc3c(-c4ccco4)nc(C#N)nc32)cc1
Reply: 196.5 °C (dec.)

Ask: Query: melting point; subject: CC(C)CC(=O)n1cnc2c(-c3ccco3)nc(N)nc21
Reply: 175.4 to 176.1 °C

Ask: Query: melting point; subject: NCCn1cnc2c(-c3ccco3)nc(N)nc21
Reply: 190 °C (dec.)

Ask: Query: melting point; subject: Nc1nc(-c2ccco2)c2ncn(CC(=O)NCc3ccccc3)c2n1
Reply: 287.2 to 287.8 °C

Ask: Query: melting point; subject: Nc1nc(-c2ccco2)c2ncn(CC(=O)O)c2n1
Reply: > 300 °C (dec.)

Ask: Query: melting point; subject: Nc1nc(-c2ccco2)c2ncn(CC(=O)Nc3ccccn3)c2n1
Reply: 242.5 to 243.6 °C

----------
PROPERTY_MEASURED: melting point

COMPOUND | RECORDED_RESULT
Cn1cccc1-c1nc(N)nc2c1ncn2C(=O)NCc1ccccc1 [Example 134] | > 230 °C (dec.)
CCCNC(=O)Cn1cnc2c(-c3ccco3)nc(N)nc21 [Example 124] | 258.7 to 260.1 °C
COC(=O)c1ccc(Cn2cnc3c(-c4ccco4)nc(N)nc32)cc1 [Example 215] | 219.5 to 219.7 °C

Ask: Query: melting point; subject: Nc1nc(-c2cc3ccccc3o2)c2ncn(C(=O)NCc3ccccc3)c2n1 [Example 128]
Reply: > 250 °C (dec.)

----------
PROPERTY_MEASURED: melting point

SMILES | melting point
Nc1nc(-c2ccco2)c2ncn(CC(=O)NCc3ccccn3)c2n1 | 238.3 to 238.4 °C
Nc1nc(-c2ccco2)c2ncn(C(=O)OCc3ccccc3)c2n1 | 161.7 °C (dec.)
COc1ccc(NC(=O)Cn2cnc3c(-c4ccco4)nc(N)nc32)c(C)c1 | 287.1 to 288.2 °C
Nc1nc(-c2ccco2)c2ncn(Cc3ccccc3NS(=O)(=O)c3cccs3)c2n1 | 265.6 to 266 °C

Ask: Query: melting point; subject: CNc1nc(-c2ccco2)c2nc[nH]c2n1
Reply: 235 to 236 °C (dec.)

Ask: Query: melting point; subject: CNc1nc(-c2ccco2)c2ncn(COCC[Si](C)(C)C)c2n1
Reply: 160.1 to 160.8 °C

Ask: Query: melting point; subject: Clc1nc(-c2ccco2)c2nc[nH]c2n1
Reply: > 303 °C (dec.)

Ask: Query: melting point; subject: NC(=O)Cn1cnc2c(-c3ccco3)nc(N)nc21
Reply: 321.5 to 321.6 °C

----------
Known melting point of a selection of compounds

Example entries begin here.
SMILES | RECORDED_RESULT
Nc1nc(-c2cncs2)c2nc[nH]c2n1 | 300 °C (dec.)
CC(C)NC(=O)n1cnc2c(-c3ccco3)nc(N)nc21 | > 300 °C (dec.)
Nc1nc(-c2ccco2)c2ncn(CC(=O)NCc3ccc(Cl)cc3)c2n1 | 277 °C (dec.)
Nc1nc(-c2ccco2)c2ncn(C(=O)Oc3ccccc3)c2n1 | > 300 °C (dec.)
CN1CCN(C(=O)Cn2cnc3c(-c4ccco4)nc(N)nc32)CC1 | > 270 °C (dec.)
O=C(NC1CCCCC1)n1cnc2c(-c3ccco3)nc(Cl)nc21 | 177.4 to 177.8 °C

Let's switch to this compound now.
Ask: Query: melting point; subject: CC(=O)n1cnc2c(-c3ccco3)nc(N)nc21
Reply: > 300 °C (dec.)

----------
Known melting point of a selection of compounds

SMILES | melting point
Nc1nc(-c2ccco2)c2ncn(CCN3C(=O)c4ccccc4C3=O)c2n1 | 160 °C (dec.)
CC(C)COC(=O)n1cnc2c(-c3ccco3)nc(N)nc21 | > 300 °C (dec.)

Ask: Query: melting point; subject: C=CCNc1nc(-c2ccco2)c2ncn(COCC[Si](C)(C)C)c2n1
Reply: 185.5 to 186 °C

----------
Known melting point of a selection of compounds

Example entries begin here.
COMPOUND | melting point
CC(C)(C)OC(=O)n1cnc2c(-c3ccco3)nc(N)nc21 [Example 14] | 143.2 to 144.1 °C
CC(C)(C)c1ccc(S(=O)(=O)n2cnc3c(-c4ccco4)nc(N)nc32)cc1 [Example 27] | 238.7 to 239.2 °C
Nc1nc(-c2ccco2)c2ncn(Cc3ccc(C(=O)NCc4ccccc4)cc3)c2n1 [Example 227] | 170 to 171.9 °C

Ask: Query: melting point; subject: COc1nc(-c2ccco2)c2ncn(COCC[Si](C)(C)C)c2n1
Reply: 79.6 °C (dec.)

Ask: Query: melting point; subject: Nc1nc(-c2ccco2)c2ncn(CC(=O)NCCO)c2n1 [Example 96]
Reply: > 250 °C (dec.)

Ask: Query: melting point; subject: C[Si](C)(C)CCOCn1cnc2c(-c3ccco3)nc(NCCO)nc21
Reply: 125.9 to 126.4 °C

Ask: Query: melting point; subject: C[Si](C)(C)CCOCn1cnc2c(-c3ccco3)nc(Cl)nc21
Reply: 105.8 to 106.2 °C

Ask: Query: melting point; subject: Nc1nc(-c2ccn[nH]2)c2ncn(Cc3ccccc3F)c2n1 [Example 262]
Reply: 257 to 259 °C

Ask: Query: melting point; subject: Cc1ccc(-c2nc(N)nc3[nH]cnc23)nc1 [Example 241]
Reply: 246.2 to 248 °C

Ask: Query: melting point; subject: Cc1nc(-c2ccco2)c2nc[nH]c2n1 [Example 153, 6.(2-Furyl)-2-methyl-1H-purine]
Reply: 342 °C (dec.)

Numbers sourced from patent US7452894B2.
